The following compounds are shown together with reported Growth (%) at 125 pm SEPTTR values.
tested on: Septoria tritici; assay: Comparative Example 1: activity against leaf blotch on wheat caused by Septoria tritici (microtiter plate); format: cell-based; settings: 7 days after inoculation

{"columns": ["compound", "quantity_unit", "Growth (%) at 125 pm SEPTTR"],
 "data": [
  ["Cc1cc(C2=NCC(C)(C)Oc3ccccc32)cnc1C", "%", 51],
  ["Cc1cc(C2=NC(C)(C)C(C)(C)Oc3ccccc32)cnc1C", "%", 64],
  ["Cc1cc(C2=NC(C)C(C)(C)Oc3ccccc32)cnc1C (stereo not shown)", "%", 52],
  ["Cc1cc(C2=NCCOc3ccccc32)cnc1C [D1, reference compound]", "%", 98]
]}

###

Attribute: Growth (%) at 8 pm LEPTNO
tested on: Leptosphaeria nodorum; assay: Comparative Example 2: activity against wheat leaf spots caused by Leptosphaeria nodorum (microtiter plate); assay type: cell-based; settings: 7 days after inoculation

{"columns": ["compound", "Growth (%) at 8 pm LEPTNO"],
 "data": [
  ["Cc1cc(C2=NC(C)(C)C(C)(C)Oc3ccccc32)cnc1C", 30],
  ["Cc1cc(C2=NC(C)C(C)(C)Oc3ccccc32)cnc1C (stereo not shown)", 6],
  ["Cc1cc(C2=NCC(C)(C)Oc3ccccc32)cnc1C", 4],
  ["Cc1cc(C2=NCCOc3ccccc32)cnc1C [D1, reference compound]", 45]
]}
